Just for reference, BindingDB's records for doi:10.1038/sj.bjp.0703341 is where these values come from.

Reported pKi, UniProt P31388.
Sequence (P31388 whole entry): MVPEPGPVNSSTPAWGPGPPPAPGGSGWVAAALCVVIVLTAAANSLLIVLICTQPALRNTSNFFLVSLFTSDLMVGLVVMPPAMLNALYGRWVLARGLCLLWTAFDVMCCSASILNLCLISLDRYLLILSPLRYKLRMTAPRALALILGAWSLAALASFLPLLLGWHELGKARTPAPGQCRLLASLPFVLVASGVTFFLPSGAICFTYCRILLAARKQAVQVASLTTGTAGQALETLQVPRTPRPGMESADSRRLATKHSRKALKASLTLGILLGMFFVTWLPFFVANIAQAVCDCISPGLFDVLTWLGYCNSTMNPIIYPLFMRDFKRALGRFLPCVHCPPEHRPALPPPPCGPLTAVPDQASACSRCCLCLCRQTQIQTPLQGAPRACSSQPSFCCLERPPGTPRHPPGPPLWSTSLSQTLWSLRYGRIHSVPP
Numbers only, as −log10 of the molar value.

[
  {
    "SMILES STRUCTURE": "CC[C@@H](CO)NC(=O)[C@@H]1C=C2c3cccc4c3c(cn4C)C[C@H]2N(C)C1",
    "STUDY TARGET": "UniProt P31388",
    "pKi": 6.40
  }
]

Give measured pKi for every item shown.
1. CN1C[C@@H](NS(=O)(=O)N(C)C)C[C@@H]2c3cccc4c3c(cn4C)C[C@H]21
2. CN(C)CC/C=C1\c2ccccc2Sc2ccc(Cl)cc21
3. Cc1nc2sccn2c(=O)c1CCN1CCC(=C(c2ccc(F)cc2)c2ccc(F)cc2)CC1
4. CN1C[C@H](CNC(=O)OCc2ccccc2)C[C@@H]2c3cccc4c3c(cn4C)C[C@H]21
5. CN(C)CCC=C1c2ccccc2CCc2ccccc21

[5.80, 8.50, 7.40, 7.50, 7.20]

* * *

Give measured Ki for each item. Keep answers brief.
Biological target: 5-hydroxytryptamine receptor 2C (Sus scrofa, UniProt G7ZKZ7)
Sequence (G7ZKZ7 whole entry): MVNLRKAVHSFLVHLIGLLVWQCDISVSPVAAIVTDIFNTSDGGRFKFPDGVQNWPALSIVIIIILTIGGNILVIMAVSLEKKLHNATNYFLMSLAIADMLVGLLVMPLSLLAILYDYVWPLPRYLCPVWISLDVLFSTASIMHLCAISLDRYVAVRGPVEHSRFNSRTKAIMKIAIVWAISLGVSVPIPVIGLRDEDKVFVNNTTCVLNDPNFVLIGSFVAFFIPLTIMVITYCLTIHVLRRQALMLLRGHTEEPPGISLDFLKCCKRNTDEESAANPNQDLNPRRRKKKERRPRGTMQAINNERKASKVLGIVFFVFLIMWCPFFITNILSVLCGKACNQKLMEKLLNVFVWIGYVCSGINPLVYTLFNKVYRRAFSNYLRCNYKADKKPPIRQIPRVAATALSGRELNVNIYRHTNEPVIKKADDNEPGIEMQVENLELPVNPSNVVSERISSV
Numbers only, in nM.

Below, 4 molecules whose answers are already recorded.
[
  {
    "MOLECULE": "CN1C[C@H](CNC(=O)OCc2ccccc2)C[C@@H]2c3cccc4c3c(cn4C)C[C@H]21",
    "OBSERVED RESULT": 0.63
  },
  {
    "MOLECULE": "O=C(CCCN1CCC2(CC1)C(=O)NCN2c1ccccc1)c1ccc(F)cc1",
    "OBSERVED RESULT": 1260
  },
  {
    "MOLECULE": "CC(O)C(C)OC(=O)C1CC2c3cccc4c3c(cn4C(C)C)CC2N(C)C1 (stereo not given)",
    "OBSERVED RESULT": 7.94
  },
  {
    "MOLECULE": "CN1C[C@@H](NS(=O)(=O)N(C)C)C[C@@H]2c3cccc4c3c(cn4C)C[C@H]21",
    "OBSERVED RESULT": 1.58
  }
]

Next item in the queue.
CC[C@@H](CO)NC(=O)[C@@H]1C=C2c3cccc4c3c(cn4C)C[C@H]2N(C)C1 yielded Ki of 2.51

* * *

Reported pKi, 5-hydroxytryptamine receptor 7 (Rattus norvegicus, UniProt P32305).
Answers are plain numbers, as −log10 of the molar value.

[
  {
    "COMPOUND": "CN(C)CC/C=C1\\c2ccccc2Sc2ccc(Cl)cc21",
    "OBSERVED RESULT": 8.30
  }
]

Give measured pKi for every item shown.
1. CN(C)CCC=C1c2ccccc2CCc2ccccc21
2. OCCN1CCN(CCCN2c3ccccc3Sc3ccc(Cl)cc32)CC1
3. CN1C[C@@H](NS(=O)(=O)N(C)C)C[C@@H]2c3cccc4c3c(cn4C)C[C@H]21 [MESULERGINE]

1. 6.90
2. 7.60
3. 8.20
